B1: FBXO3 (parent)
chain: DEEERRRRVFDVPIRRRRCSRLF

variants of: B1; experiment: protein stability index of a GFP-peptide fusion (GPS, HEK-293T) (PSI 1-6); higher = more stable; settings: c terminus: native;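 also: lentivirally expressed fusions sorted by FACS into six bins by GFP to DsRed ratio, PSI derived from sequencing read proportions per bin multiplied by bin number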
Record form. Attribute: protein stability index. Fill in for each entry.
Answer field: number only, no words.

Sure, the documented protein stability index for D1A is 2.65

Sure, the documented protein stability index for R8K is 2.87

Sure, the documented protein stability index for L22W is 3.03

Sure, the documented protein stability index for R15F is 1.93

Sure, the documented protein stability index for V9L is 2.53

Sure, the documented protein stability index for C19V is 3.22

Sure, the documented protein stability index for F10K is 4.19

Sure, the documented protein stability index for C19A is 3.62

Sure, the documented protein stability index for R15H is 1.85

Sure, the documented protein stability index for S20F is 2.77

Sure, the documented protein stability index for E4P is 2.29

Sure, the documented protein stability index for R6N is 3.87

Sure, the documented protein stability index for P13G is 2.24

Sure, the documented protein stability index for R6I is 2.36

Sure, the documented protein stability index for R6F is 1.35
